Just for reference, patent US9957274B2 is where these values come from.

- system under test: EED (Homo sapiens)
- assay explanation: EED TR-FRET Binding Assay (modified LanthaScreen competition assay)
pIC50: −log10 of the molar value.
measurement type: pIC50

| molecule | pIC50 |
| --- | --- |
| CNC(=O)Cn1cc(-c2ccc([C@H]3CN(C4CCc5cccc(F)c54)C[C@@H]3N(C)C)cc2)cn1 (mixture of isomers) | 9.03 |

a. CN(C)[C@H]1CN(C2CCc3cccc(F)c32)C[C@@H]1c1cn(C)c2c(C(=O)N3CCN(S(C)(=O)=O)CC3)cccc12 (mixture of isomers)
b. CN(C)C(=O)C(=O)N1CCN(c2ccc([C@@H]3CN(C4CCc5cccc(F)c54)C[C@H]3N(C)C)cc2)CC1 (mixture of isomers)
c. CN(C)[C@H]1CN(C2CCc3cccc(O)c32)C[C@@H]1c1cn(C)c2ccccc12 (stereo partly shown)
Q) Number of molecules to sort: 3. Sort criterion: pIC50, ascending. Write the labels in rank order as requested.
A) c, a, b

###

- system under test: EED (Homo sapiens, UniProt O75530)
- Sequence (O75530 whole entry): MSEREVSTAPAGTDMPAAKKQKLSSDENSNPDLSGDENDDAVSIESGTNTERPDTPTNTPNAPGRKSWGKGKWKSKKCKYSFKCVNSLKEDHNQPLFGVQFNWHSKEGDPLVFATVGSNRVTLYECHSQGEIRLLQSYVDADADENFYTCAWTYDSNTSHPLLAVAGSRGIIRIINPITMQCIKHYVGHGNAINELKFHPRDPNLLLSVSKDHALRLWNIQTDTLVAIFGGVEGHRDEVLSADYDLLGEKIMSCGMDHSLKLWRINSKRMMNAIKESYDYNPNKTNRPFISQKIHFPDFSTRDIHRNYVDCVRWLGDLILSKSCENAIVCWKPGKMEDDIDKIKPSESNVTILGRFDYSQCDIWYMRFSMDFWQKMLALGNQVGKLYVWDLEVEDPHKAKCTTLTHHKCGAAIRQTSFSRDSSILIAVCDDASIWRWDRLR
- assay explanation: EED TR-FRET Binding Assay (modified LanthaScreen competition assay)
measurement type: IC50 (nM)

# count of solved cases: 3
| molecule | system under test | measurement type | unit of measure | assay value |
| --- | --- | --- | --- | --- |
| CC(=O)N1CCN(c2ccc([C@H]3CN([C@@H]4CCc5cccc(F)c54)C[C@@H]3N(C)C)cc2)CC1 [Example 46] | EED (Homo sapiens, UniProt O75530) | IC50 | nM | 3.36 |
| CN(C)[C@H]1CN(C2CCc3cccc(F)c32)C[C@@H]1C1CCN(c2ccc(C(N)=O)cc2)CC1 (mixture of isomers) [Example 166] | EED (Homo sapiens, UniProt O75530) | IC50 | nM | 0.454 |
| COC(=O)c1ccc([C@@H]2CN(C3CCc4cccc(F)c43)C[C@H]2N(C)C)cc1 (mixture of isomers) [Example 22] | EED (Homo sapiens, UniProt O75530) | IC50 | nM | 2.85 |

I. CN(C)[C@H]1CN(C2CCc3cccc(F)c32)C[C@@H]1C1CCN(c2ncc(C(N)=O)s2)CC1 (mixture of isomers) [Example 162]
II. CN(C)[C@H]1CN(C2CCc3cccc(F)c32)C[C@@H]1c1cn(C)c2c(C(=O)N3CC(F)C3)cccc12 (mixture of isomers) [Example 103]
Q) Larger number for IC50: I , or II ? Give the label under which the chosen entry appears.
A) II
(II: 1.01 nM, I: 0.646 nM)

###

- System: Pfeiffer cells
- assay explanation: CTG cell viability assay (CellTiter-Glo)
- Assay type: cell-based
- test conditions: Homo sapiens, 240 h; Pfeiffer cells, 10 days with compound, CellTiter-Glo; read-out: Cell Proliferation IC50
measurement type: pIC50
Scale note: pIC50 = -log10(concentration in M).

# example entries with known answers
| compound | system under test | measurement type | assay value |
| --- | --- | --- | --- |
| CN(C)[C@H]1CN(C2CCc3cccc(F)c32)C[C@@H]1c1ccc(-c2cnn(CC(N)=O)c2)cc1 (mixture of isomers) | Pfeiffer cells | pIC50 | 6.97 |
| CN(C)[C@@H]1CN(C2CCc3cccc(F)c32)C[C@H]1c1ccc(N2CCN(c3ccncn3)CC2)cc1 (mixture of isomers) | Pfeiffer cells | pIC50 | 6.97 |
| CN(C)[C@H]1CN(C2CCc3cccc(F)c32)C[C@@H]1c1cn(C)c2c(C(=O)N3CC[C@H](O)C3)cccc12 (mixture of isomers) | Pfeiffer cells | pIC50 | 6.53 |
| CN(C)[C@H]1CN(C2CCc3cccc(F)c32)C[C@@H]1c1cn(C)c2c(C(=O)N3CCN(c4cccnn4)CC3)cccc12 (mixture of isomers) | Pfeiffer cells | pIC50 | 6.52 |
| CN(C)[C@H]1CN(C2CCc3cccc(F)c32)C[C@@H]1c1cn(C)c2c(C(=O)N3CCN(S(=O)(=O)N4CCC4)CC3)cccc12 (stereo partly shown) | Pfeiffer cells | pIC50 | 7.03 |

Q) Give the reported pIC50 for this compound. CCS(=O)(=O)N1CCN(c2ccc([C@H]3CN(C4CCc5cccc(F)c54)C[C@@H]3N(C)C)cc2)CC1 (mixture of isomers)
A) 6.71

Q) Entry CN(C)[C@H]1CN(C2CCc3cccc(F)c32)C[C@@H]1c1cn(C)c2c(C(=O)N3CC(F)C3)cccc12 (mixture of isomers) [Example 103] needs its pIC50 filled in; supply it.
A) 7.19

Q) Give pIC50 for Cc1noc(-c2ccc([C@H]3CN(C4CCc5cccc(F)c54)C[C@@H]3N(C)C)cc2)n1 (mixture of isomers)
A) 5.79

###

- system under test: UniProt O75530
- assay explanation: EED TR-FRET Binding Assay (modified LanthaScreen competition assay)
measurement type: IC50 (nM)

These solved cases illustrate the format of a correct answer.
| molecule | IC50 / nM |
| --- | --- |
| CN(C)[C@@H]1CN(C2CCc3cccc(F)c32)C[C@H]1c1ccc(C(=O)O)cc1 (mixture of isomers) | 23.2 |
| CN(C)[C@@H]1CN(C2CCc3cccc(F)c32)C[C@H]1c1ccc(N2CCN(C(=O)CO)CC2)cc1 (mixture of isomers) | 1 |
| CNC(=O)c1ccc(N2CCC([C@H]3CN(C4CCc5cccc(F)c54)C[C@@H]3N(C)C)CC2)nc1 (mixture of isomers) | 1.98 |

A. CN(C)[C@@H]1CN(C2CCc3cccc(F)c32)C[C@H]1c1ccc(N2CCN(C(=O)C(N)=O)CC2)cc1 (mixture of isomers)
B. CN(C)[C@H]1CN(C2CCc3cccc(F)c32)C[C@@H]1c1cn(C)c2c(C(=O)N3CC(F)C3)cccc12 (some centres unmarked) [Example 102]
C. Cc1n[nH]c(C)c1S(=O)(=O)N1CCN(C(=O)c2cccc3c([C@H]4CN(C5CCc6cccc(F)c65)C[C@@H]4N(C)C)cn(C)c23)CC1 (mixture of isomers)
D. CN(C)[C@H]1CN(C2CCc3cccc(F)c32)C[C@@H]1c1cn(C)c2ccncc12 (mixture of isomers)
E. CC(=O)N1CCN(c2ccc([C@H]3CN(C4CCc5cccc(F)c54)C[C@@H]3N(C)C)cc2C)CC1 (mixture of isomers)
Q) Rank the items in ascending order with respect to IC50. // rank by listing labels in the order requested
A) B, A, C, E, D
(B: 0.335 nM, A: 1.06 nM, C: 2.05 nM, E: 6.62 nM, D: 46.8 nM)

A. CN(C)C(=O)Cn1cc(-c2ccc([C@@H]3CN(C4CCc5cccc(F)c54)C[C@H]3N(C)C)cn2)cn1 (mixture of isomers)
B. CN(C)[C@H]1CN(C2C[C@H](F)c3cccc(F)c32)C[C@@H]1c1ccc(S(C)(=O)=O)cc1 (mixture of isomers)
C. CN(C)C(=O)c1ccc([C@H]2CN(C3CCc4cccc(Cl)c43)C[C@@H]2N(C)C)cc1 (mixture of isomers)
Q) # rank by IC50, ascending (min first) // respond by listing labels in the order requested
A) A, B, C
(A: 1.14 nM, B: 11.4 nM, C: 18.2 nM)

I. CN1CCN(C(=O)c2cccc3c([C@H]4CN(C5CCc6cccc(F)c65)C[C@@H]4N(C)C)cn(C)c23)CC1=O (mixture of isomers)
II. Cc1cccc2c1C(N1C[C@H](c3cn(C)c4ccccc34)[C@@H](N(C)C)C1)CC2 (some centres unmarked)
III. CN(C)[C@H]1CN(C2CCc3cccc(F)c32)C[C@@H]1C1CCN(c2cccnc2)CC1 (mixture of isomers)
Q) Sort low-to-high on IC50, please. Thanks in advance for listing the labels in the requested order.
A) I, III, II

###

- system under test: EED (Homo sapiens, UniProt O75530)
- assay explanation: EED TR-FRET Binding Assay (modified LanthaScreen competition assay)
pIC50: −log10 of the molar value.
measurement type: pIC50

| compound | pIC50 |
| --- | --- |
| CN(C)[C@H]1CN(C2CCc3cccc(F)c32)C[C@@H]1C1CCN(c2cnc(C(N)=O)cn2)CC1 (mixture of isomers) [Example 163] | 9.20 |
| CN(C)[C@H]1CN(C2CCc3cccc(F)c32)C[C@@H]1c1cn(C)c2c(C(=O)N3CC(O)C3)cccc12 (mixture of isomers) [Example 106] | 9.11 |
| CN(C)[C@H]1CN(C2CCc3cc(F)ccc32)C[C@@H]1c1cn(C)c2ccccc12 (mixture of isomers) [Example 91] | 7.51 |
| CN(C)[C@H]1CN(C2CCc3cccc(F)c32)C[C@@H]1c1cn(C)c2cc(C(=O)N3CC[C@@H](O)C3)ccc12 (mixture of isomers) [Example 112] | 8.92 |
| CN(C)[C@H]1CN(C2CCc3cccc(F)c32)C[C@@H]1c1cn(C)c2c(C(=O)N3CCN4CCNC(=O)C4C3)cccc12 (mixture of isomers) [Example 134] | 8.60 |
| CN(C)[C@H]1CN([C@@H]2CCc3cccc(F)c32)C[C@@H]1C1COc2ccccc21 (mixture of isomers) [Example 142] | 7.59 |
| CC(=O)N1CCN(c2ccc([C@H]3CN(C4CCc5cccc(F)c54)C[C@@H]3N(C)C)cc2)CC1 (some centres unmarked) [Example 43] | 9.53 |
| CC(=O)N1CCN(C(=O)c2ccc3c([C@H]4CN(C5CCc6cccc(F)c65)C[C@@H]4N(C)C)cn(C)c3c2)CC1 (mixture of isomers) [Example 123] | 8.45 |

a. Cc1nnc(-c2ccc([C@@H]3CN(C4CCc5cccc(F)c54)C[C@H]3N(C)C)cc2)o1 (mixture of isomers) [Example 68]
b. CN(C)[C@H]1CN([C@@H]2C[C@@H](O)c3cccc(F)c32)C[C@@H]1c1ccc(S(C)(=O)=O)cc1 (mixture of isomers) [Example 16]
c. CN(C)[C@H]1CN(C2CCc3cccc(F)c32)C[C@@H]1c1nn(C)c2ccccc12 (mixture of isomers) [Example 156]
d. CN(C)[C@H]1CN(C2CCc3cccc(F)c32)C[C@@H]1c1cn(C)c2cc(C(=O)N3C[C@H](O)[C@@H](O)C3)ccc12 (mixture of isomers) [Example 114]
e. CN(C)C(=O)N1CCN(c2cccc3c([C@H]4CN(C5CCc6cccc(F)c65)C[C@@H]4N(C)C)cn(C)c23)CC1 (mixture of isomers) [Example 131]
Q) Sort entries by pIC50 from minimum to maximum value. // rank by listing labels in the order requested
A) b, d, a, c, e
(b: 6.31, d: 8.25, a: 8.63, c: 8.85, e: 9.39)

1. Cc1noc(-c2ccc([C@H]3CN(C4CCc5cccc(F)c54)C[C@@H]3N(C)C)cc2)n1 (mixture of isomers) [Example 67]
2. CN(C)[C@H]1CN(C2CCc3cccc(F)c32)C[C@@H]1c1cn(C)c2c(C(=O)N3CCN(S(=O)(=O)N(C)C)CC3)cccc12 (mixture of isomers) [Example 124]
Q) Return label of the item with the larger pIC50. Candidates: 1 , 2 . Your answer should be the label of the entry you select.
A) 2

A. CN(C)[C@H]1CN(C2CCc3cccc(F)c32)C[C@@H]1c1cn(C)c2cc(C(=O)N3CCN(S(C)(=O)=O)CC3)ccc12 (mixture of isomers) [Example 122]
B. CN(C)[C@H]1CN(C2CCc3cccc(F)c32)C[C@@H]1c1cn(C)c2c(C(=O)N3C[C@H](O)[C@@H](O)C3)cccc12 (mixture of isomers) [Example 113]
C. CN(C)[C@H]1CN(C2CCc3cccc(F)c32)C[C@@H]1C1CCOCC1 (mixture of isomers) [Example 144]
D. CN(C)[C@H]1CN(C2CCc3cccc(F)c32)C[C@@H]1c1cn(C)c2c(C(=O)NC3CC(O)C3)cccc12 (mixture of isomers) [Example 108]
Q) Order the items by recorded pIC50; the first position goes to the largest value. Returns: the labels arranged in the requested order.
A) B, D, A, C

A. CN(C)[C@H]1CN(C2CCc3cccc(F)c32)C[C@@H]1c1cn(C)c2c(Br)cccc12 (mixture of isomers) [Example 93]
B. CN(C)[C@@H]1CN(C2CCc3cccc(F)c32)C[C@H]1c1ccc(N2CCN(S(=O)(=O)c3cn(C)cn3)CC2)cc1 (mixture of isomers) [Example 73]
C. CN(C)[C@H]1CN(C2CCc3cccc(F)c32)C[C@@H]1c1cn(C)c2ncccc12 (mixture of isomers) [Example 164]
D. CN1CCN(c2ccc([C@H]3CN(C4CCc5cccc(F)c54)C[C@@H]3N(C)C)cc2)CC1=O (mixture of isomers) [Example 56]
Q) Arrange the 4 entries by pIC50 so the values rise. Use the labels to give the requested order.
A) A, D, B, C
(A: 8.56, D: 8.86, B: 9.08, C: 9.31)

A. Cc1cc([C@H]2CN(C3CCc4cccc(F)c43)C[C@@H]2N(C)C)ccc1C#N (mixture of isomers) [Example 37]
B. CN1CCN(c2ccc([C@H]3CN(C4CCc5cccc(F)c54)C[C@@H]3N(C)C)cc2)CC1 (mixture of isomers) [Example 61]
Q) Select the item with the higher value of pIC50 from the options A and B listed. Mark your answer with the label of the selected entry.
A) B
